- EXPERIMENT_SUMMARY: Stability of canagliflozin in rat plasma samples (QC samples)
- Type: in vitro ADME
- REPORTED_CONDITIONS: rat plasma; autosampler (4 °C) for 24 h; nominal concentration 800; n = 5
MEASURED_QUANTITY: Concentration found after storage (Mean ± SD) (ng/mL)
Reply with just the number (in ng/mL).

Data request: Reported Concentration found after storage (Mean ± SD) for "Cc1ccc([C@@H]2O[C@H](CO)[C@@H](O)[C@H](O)[C@H]2O)cc1Cc1ccc(-c2ccc(F)cc2)s1" : what is it?
Data returned: 807

----------
- EXPERIMENT_SUMMARY: Plasma pharmacokinetics of canagliflozin and its metabolites after oral administration to CTRL and type 2 diabetic (DM) rats, UPLC-MS/MS
- Assay type: in vivo, rat
- REPORTED_CONDITIONS: rat, plasma, 20 mg/kg; heading: CLz/F; CTRL rats; canagliflozin 20 mg/kg oral; mean ± SD, n = 5
- From the text: The determination of metabolite concentrations was done by a semi-quantitative analysis method: the peak area of the metabolites was divided by the peak area of the original drug and then multiplied by the concentration of original drug. The type 2 diabetic model was developed using a combination of a high-fat diet (HFD) and low-dose STZ injection. […] The blood glucose concentrations, food intake, and body weights of the rats were monitored weekly. […]
MEASURED_QUANTITY: CL/F (mL/min/kg)
Give a bare numeral; the unit mL/min/kg is implied.

Data request: Form field: reported CL/F of Cc1ccc([C@@H]2O[C@H](CO)[C@@H](O)[C@H](O)[C@H]2O)cc1Cc1ccc(-c2ccc(F)cc2)s1 [Canagliflozin]
Data returned: 5.96
